system: Sterol Biosynthesis in L6 Rat Myoblast; assay: Sterol biosynthesis in L6 rat myoblast (14C acetic acid into cholesterol); assay type: cell-based; conditions: 3 hours pre-incubation, 3 hours 14C acetic acid labeling
experimental endpoint: IC50 (nM)
Response body: numeric value in nM, unit text excluded.

[in] For C[C@@H](NC(=O)c1nc(-c2ccc(F)cc2)n(CC[C@@H](O)C[C@@H](O)CC(=O)O)c1C1CC1)c1ccccc1 , what is its reported IC50?
[out] 449

###

Molecular target: HMGCoA (3-Hydroxy-3-methylglutaryl CoA) Reductase (Rattus norvegicus, UniProt P51639)
Sequence (P51639 1-887): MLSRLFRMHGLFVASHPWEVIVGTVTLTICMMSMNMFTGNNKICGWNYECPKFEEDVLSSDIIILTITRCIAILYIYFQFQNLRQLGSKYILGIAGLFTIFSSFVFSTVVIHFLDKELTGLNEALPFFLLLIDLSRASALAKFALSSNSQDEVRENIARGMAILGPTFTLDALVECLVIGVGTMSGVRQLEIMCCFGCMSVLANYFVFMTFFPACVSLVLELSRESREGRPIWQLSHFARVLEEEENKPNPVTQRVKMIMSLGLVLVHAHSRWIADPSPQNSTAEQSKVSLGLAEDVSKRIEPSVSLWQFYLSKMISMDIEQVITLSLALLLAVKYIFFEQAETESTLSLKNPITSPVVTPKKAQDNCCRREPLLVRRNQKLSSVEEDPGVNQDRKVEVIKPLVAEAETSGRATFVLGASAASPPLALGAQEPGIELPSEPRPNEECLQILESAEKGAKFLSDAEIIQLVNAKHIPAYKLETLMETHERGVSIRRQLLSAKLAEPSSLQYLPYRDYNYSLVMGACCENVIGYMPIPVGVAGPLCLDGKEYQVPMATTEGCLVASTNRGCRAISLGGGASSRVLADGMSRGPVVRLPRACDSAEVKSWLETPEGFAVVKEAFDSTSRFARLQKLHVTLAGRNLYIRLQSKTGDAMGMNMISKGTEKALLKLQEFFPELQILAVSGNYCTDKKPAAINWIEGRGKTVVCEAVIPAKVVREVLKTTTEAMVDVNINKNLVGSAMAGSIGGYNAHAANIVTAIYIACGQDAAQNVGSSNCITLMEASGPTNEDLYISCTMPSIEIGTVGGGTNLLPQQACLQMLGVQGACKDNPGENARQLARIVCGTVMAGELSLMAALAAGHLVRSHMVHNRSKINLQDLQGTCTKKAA
experimental endpoint: IC50
Express your answer as a number followed by its unit.

[in] For C[C@H](c1ccccc1)N(C)C(=O)c1nc(-c2ccc(F)cc2)n(CC[C@@H](O)C[C@@H](O)CC(=O)O)c1C1CC1 , what is its reported IC50?
[out] 36.8 nM
